experiment.summary: Cytotoxicity (CC50) in C8166 cells
Type: cell-based
applied.conditions: human
This listing pairs compounds with measured CC50.

compound	qualifier.symbol	CC50 (µg/mL)
COc1ccccc1NC(=O)c1c(N)cccc1S(=O)(=O)c1cc(C)cc(C)c1 [Compound 75]	>	200
COc1ccccc1NC(=O)c1c(NS(=O)(=O)c2ccccc2)cccc1Sc1ccc([N+](=O)[O-])cc1 [Compound 56]	>	200
COc1ccccc1NC(=O)c1cc(NC(C)=O)ccc1Sc1ccc([N+](=O)[O-])cc1 [Compound 29]	=	110
COc1ccccc1NC(=O)c1c(N)cccc1S(=O)(=O)c1ccc([N+](=O)[O-])cc1 [Compound 46]	=	141
COc1ccccc1NC(=O)c1c(NS(=O)(=O)c2ccccc2)cccc1S(=O)(=O)c1ccc([N+](=O)[O-])cc1 [Compound 61]	>	200
Nc1ccc(NC(=O)c2c(Sc3ccc([N+](=O)[O-])cc3)cccc2[N+](=O)[O-])cc1 [Compound 55]	>	200
CS(=O)(=O)Oc1ccccc1NC(=O)c1c(N)cccc1Sc1ccc([N+](=O)[O-])cc1 [Compound 73]	=	194
COc1ccccc1NC(=O)c1c(NCCO)cccc1Sc1ccc([N+](=O)[O-])cc1 [Compound 80]	=	93.5
Nc1cccc(Sc2ccc([N+](=O)[O-])cc2)c1C(=O)Nc1ccccc1I [Compound 71]	>	200
COc1ccccc1NC(=O)c1c(Sc2ccc([N+](=O)[O-])cc2)cccc1N1CCOCC1 [Compound 63]	>	200

---

Each entry below lists one item and its recorded CC50 value.
experiment.summary: Activity for HIV-2 ROD

molecule	CC50
COc1ccccc1NC(=O)c1c(N)cccc1S(=O)(=O)c1ccc([N+](=O)[O-])cc1	> 200 µg/mL
COc1ccccc1NC(=O)c1c(NC(=O)CN)cccc1S(=O)(=O)c1ccc([N+](=O)[O-])cc1.Cl [Compound 67, hydrochloride hydrochloride]	126 µg/mL
COc1ccccc1NC(=O)c1c(N)cccc1Sc1ccc([N+](=O)[O-])cc1	185 µg/mL

---

experiment.summary: Cytotoxicity (CC50) in C8166 cells
Type: cell-based
applied.conditions: human
Each record's CC50 is compared with low class (below 40 µg/mL), middle class (40 µg/mL to below 100 µg/mL), high class (100 µg/mL or more) to give its class.

molecule	discrete.label
COc1ccccc1NC(=O)c1c(N)cccc1Sc1ccc([N+](=O)[O-])cc1 [Compound 25]	middle class
COc1ccccc1NC(=O)c1c(N)cccc1Sc1ccc(C(=O)O)cc1 [Compound 76]	high class
Nc1cccc(S(=O)(=O)c2ccc([N+](=O)[O-])cc2)c1C(=O)Nc1ccccc1I [Compound 72]	high class
COc1ccccc1NC(=O)c1cc([N+](=O)[O-])ccc1Sc1ccc([N+](=O)[O-])cc1 [Compound 23]	high class
COc1ccccc1NC(=O)c1c(NC(=O)CN)cccc1Sc1ccc([N+](=O)[O-])cc1.Cl [Compound 66, hydrochloride]	middle class
CNc1cccc(S(=O)(=O)c2ccc([N+](=O)[O-])cc2)c1C(=O)Nc1ccccc1OC [Compound 59]	high class
COc1ccccc1NC(=O)c1c(N)cccc1Sc1cc(C)cc(C)c1 [Compound 74]	middle class
COc1ccccc1NC(=O)c1c(NCCBr)cccc1Sc1ccc([N+](=O)[O-])cc1 [Compound 64]	low class
COc1ccccc1NC(=O)c1c(NS(=O)(=O)c2ccc(C)cc2)cccc1S(=O)(=O)c1ccc([N+](=O)[O-])cc1 [Compound 60]	high class
COc1ccccc1NC(=O)c1c(NC(=O)C(N)CCCCN)cccc1Sc1ccc([N+](=O)[O-])cc1.Cl (stereo not drawn) [Compound 68, hydrochloride]	high class
COc1ccccc1NC(=O)c1c(NS(=O)(=O)c2ccc(C)cc2)cccc1Sc1ccc([N+](=O)[O-])cc1 [Compound 57]	low class
COc1ccccc1NC(=O)c1c(NC(=O)CN)cccc1S(=O)(=O)c1ccc([N+](=O)[O-])cc1.Cl [Compound 67, hydrochloride hydrochloride]	high class
COc1ccccc1NC(=O)c1c(NCP(=O)(OC(C)C)OC(C)C)cccc1Sc1ccc([N+](=O)[O-])cc1 [Compound 65]	low class
COc1ccccc1NC(=O)c1c(N)cccc1S(=O)(=O)c1ccc(C(=O)O)cc1 [Compound 77]	high class
